All values here come from paper PMC12483202.

Assay: Repeated oral dosing (5 mg/kg every 12 h, six doses) plasma trough concentrations in koalas
Assay type: in vivo
Settings: male, koala (Phascolarctos cinereus), in vivo, Plasma firocoxib concentration (trough)
MEASURE NAME: concentration at 24 h (ng/mL)
# number only, unit ng/mL dropped from output

Lookup result for CC1(C)OC(=O)C(OCC2CC2)=C1c1ccc(S(C)(=O)=O)cc1 [firocoxib] ; measured concentration at 24 h: 25.3

* * *

Assay: Single oral dose (5 mg/kg) pharmacokinetics of firocoxib in koalas, plasma HPLC, non-compartmental analysis
Details: male, plasma, po, 5 mg/kg, Cmax, median value, male koalas; PO 5 mg/kg
MEASURE NAME: Cmax (ng/mL)
# number only, unit ng/mL dropped from output

Lookup result for `CC1(C)OC(=O)C(OCC2CC2)=C1c1ccc(S(C)(=O)=O)cc1` ; measured Cmax: 210

* * *

Assay: Single oral dose (5 mg/kg) pharmacokinetics of firocoxib in koalas, plasma HPLC, non-compartmental analysis
Details: female, in vivo, po, 5 mg/kg, MRT0-inf, K6 female; single oral 5 mg/kg
MEASURE NAME: MRT inf (h)
# number only, unit h dropped from output

Lookup result for `CC1(C)OC(=O)C(OCC2CC2)=C1c1ccc(S(C)(=O)=O)cc1` ; measured MRT inf: 26.4

* * *

Assay: Single oral dose (5 mg/kg) pharmacokinetics of firocoxib in koalas, plasma HPLC, non-compartmental analysis
Details: both, plasma, po, 5 mg/kg, Cmax, median (range), n = 6 koalas; single oral 5 mg/kg
MEASURE NAME: Cmax (ng/mL)
# number only, unit ng/mL dropped from output

Lookup result for `CC1(C)OC(=O)C(OCC2CC2)=C1c1ccc(S(C)(=O)=O)cc1` ; measured Cmax: 140

* * *

Test: Single oral dose (5 mg/kg) pharmacokinetics of firocoxib in koalas, plasma HPLC, non-compartmental analysis
Conditions: female, koala, plasma, po, 5 mg/kg, Firocoxib plasma concentration, K4 female; 12 h; single oral 5 mg/kg
MEASURE NAME: concentration at 12 h (ng/mL)
# number only, unit ng/mL dropped from output

Lookup result for `CC1(C)OC(=O)C(OCC2CC2)=C1c1ccc(S(C)(=O)=O)cc1` ; measured concentration at 12 h: 40.2

* * *

Experiment: Single oral dose (5 mg/kg) pharmacokinetics of firocoxib in koalas, plasma HPLC, non-compartmental analysis
Conditions: female, plasma, po, 5 mg/kg, Cmax, harmonic mean, female koalas (n = 3); single oral 5 mg/kg
MEASURE NAME: Cmax (ng/mL)
# number only, unit ng/mL dropped from output

Lookup result for `CC1(C)OC(=O)C(OCC2CC2)=C1c1ccc(S(C)(=O)=O)cc1` ; measured Cmax: 48.4

* * *

Assay: Single oral dose (5 mg/kg) pharmacokinetics of firocoxib in koalas, plasma HPLC, non-compartmental analysis
Details: female, plasma, po, 5 mg/kg, ke (elimination constant), K6 female; single oral 5 mg/kg; slope from 8,12,24 h
MEASURE NAME: k el (s⁻¹)
# number only, unit s⁻¹ dropped from output

Lookup result for CC1(C)OC(=O)C(OCC2CC2)=C1c1ccc(S(C)(=O)=O)cc1 [firocoxib] ; measured k el: 2.78e-05

* * *

Test: Single oral dose (5 mg/kg) pharmacokinetics of firocoxib in koalas, plasma HPLC, non-compartmental analysis
Settings: female, koala (Phascolarctos cinereus), plasma, po, 5 mg/kg, Firocoxib plasma concentration, K4 female; 1 h; single oral 5 mg/kg
MEASURE NAME: concentration at 1 h
Write the numeric value and append its unit.

Lookup result for CC1(C)OC(=O)C(OCC2CC2)=C1c1ccc(S(C)(=O)=O)cc1 [firocoxib] ; measured concentration at 1 h: 8.27 ng/mL

* * *

Assay: Repeated oral dosing (5 mg/kg every 12 h, six doses) plasma trough concentrations in koalas
Assay type: in vivo
Details: female, koala (Phascolarctos cinereus), plasma, harmonic mean, females, 24 h, 5 mg/kg oral every 12 h, read-out: Firocoxib trough plasma concentration
MEASURE NAME: concentration at 24 h

Lookup result for CC1(C)OC(=O)C(OCC2CC2)=C1c1ccc(S(C)(=O)=O)cc1 [firocoxib] ; measured concentration at 24 h: 75.5 ng/mL

* * *

Assay: Repeated oral dosing (5 mg/kg every 12 h, six doses) plasma trough concentrations in koalas
Format: in vivo
Details: female, koala (Phascolarctos cinereus), plasma, harmonic mean, females, 72 h, 5 mg/kg oral every 12 h, read-out: Firocoxib trough plasma concentration
MEASURE NAME: concentration at 72 h
Write the numeric value and append its unit.

Lookup result for `CC1(C)OC(=O)C(OCC2CC2)=C1c1ccc(S(C)(=O)=O)cc1` ; measured concentration at 72 h: 118 ng/mL

* * *

Assay: Single oral dose (5 mg/kg) pharmacokinetics of firocoxib in koalas, plasma HPLC, non-compartmental analysis
Settings: male, plasma, po, 5 mg/kg, AUC0-inf, K1 male; single oral 5 mg/kg
MEASURE NAME: AUC(0-inf) (ng·h/mL)
# number only, unit ng·h/mL dropped from output

Lookup result for `CC1(C)OC(=O)C(OCC2CC2)=C1c1ccc(S(C)(=O)=O)cc1` ; measured AUC(0-inf): 3000

* * *

Test: Repeated oral dosing (5 mg/kg every 12 h, six doses) plasma trough concentrations in koalas
Assay type: in vivo
Conditions: male, koala (Phascolarctos cinereus), plasma, median (range), males, 48 h, 5 mg/kg oral every 12 h, read-out: Firocoxib trough plasma concentration
MEASURE NAME: concentration at 48 h (ng/mL)
# number only, unit ng/mL dropped from output

Lookup result for `CC1(C)OC(=O)C(OCC2CC2)=C1c1ccc(S(C)(=O)=O)cc1` ; measured concentration at 48 h: 48.2

* * *

Experiment: Single oral dose (5 mg/kg) pharmacokinetics of firocoxib in koalas, plasma HPLC, non-compartmental analysis
Settings: female, koala, plasma, po, 5 mg/kg, Firocoxib plasma concentration, K4 female; 0.5 h; single oral 5 mg/kg
MEASURE NAME: concentration at 0.5 h (ng/mL)
# number only, unit ng/mL dropped from output

Lookup result for `CC1(C)OC(=O)C(OCC2CC2)=C1c1ccc(S(C)(=O)=O)cc1` ; measured concentration at 0.5 h: 1.23

* * *

Assay: Single oral dose (5 mg/kg) pharmacokinetics of firocoxib in koalas, plasma HPLC, non-compartmental analysis
Conditions: male, plasma, po, 5 mg/kg, Cmax, K2 male; single oral 5 mg/kg
MEASURE NAME: Cmax (ng/mL)
# number only, unit ng/mL dropped from output

Lookup result for `CC1(C)OC(=O)C(OCC2CC2)=C1c1ccc(S(C)(=O)=O)cc1` ; measured Cmax: 210

* * *

Assay: Single oral dose (5 mg/kg) pharmacokinetics of firocoxib in koalas, plasma HPLC, non-compartmental analysis
Conditions: female, plasma, po, 5 mg/kg, AUC 0-inf, harmonic mean, female koalas (n = 3); single oral 5 mg/kg
MEASURE NAME: AUC(0-inf) (ng·h/mL)
# number only, unit ng·h/mL dropped from output

Lookup result for `CC1(C)OC(=O)C(OCC2CC2)=C1c1ccc(S(C)(=O)=O)cc1` ; measured AUC(0-inf): 742

* * *

Assay: Single oral dose (5 mg/kg) pharmacokinetics of firocoxib in koalas, plasma HPLC, non-compartmental analysis
Conditions: male, plasma, po, 5 mg/kg, Vz/F, harmonic mean, male koalas (n = 3); single oral 5 mg/kg
MEASURE NAME: Vd/F

Lookup result for `CC1(C)OC(=O)C(OCC2CC2)=C1c1ccc(S(C)(=O)=O)cc1` ; measured Vd/F: 158 L

* * *

Assay: Single oral dose (5 mg/kg) pharmacokinetics of firocoxib in koalas, plasma HPLC, non-compartmental analysis
Details: male, koala, plasma, po, 5 mg/kg, Firocoxib plasma concentration, K1 male; 0.5 h; single oral 5 mg/kg
MEASURE NAME: concentration at 0.5 h (ng/mL)
# number only, unit ng/mL dropped from output

Lookup result for `CC1(C)OC(=O)C(OCC2CC2)=C1c1ccc(S(C)(=O)=O)cc1` ; measured concentration at 0.5 h: 4.51

* * *

Test: Repeated oral dosing (5 mg/kg every 12 h, six doses) plasma trough concentrations in koalas
Type: in vivo
Conditions: both sexes, koala (Phascolarctos cinereus), plasma, median, six koalas, 72 h (12 h after the last dose), 5 mg/kg oral every 12 h, read-out: Firocoxib plasma trough concentration
MEASURE NAME: concentration at 72 h (ng/mL)
# number only, unit ng/mL dropped from output

Lookup result for CC1(C)OC(=O)C(OCC2CC2)=C1c1ccc(S(C)(=O)=O)cc1 [firocoxib] ; measured concentration at 72 h: 82.1

* * *

Assay: Firocoxib binding to plasma proteins, ultrafiltration
Format: in vitro ADME
Details: pooled plasma, pH 7.4; koala plasma; firocoxib 500 ng/mL; corrected for non-specific binding; thawed frozen plasma; read-out: corrected percentage bound to plasma proteins (converted)
MEASURE NAME: fraction unbound at 30 min, 500 ng/mL
I only need the number, thanks.

Lookup result for CC1(C)OC(=O)C(OCC2CC2)=C1c1ccc(S(C)(=O)=O)cc1 [firocoxib] ; measured fraction unbound at 30 min, 500 ng/mL: 0.153

* * *

Assay: Single oral dose (5 mg/kg) pharmacokinetics of firocoxib in koalas, plasma HPLC, non-compartmental analysis;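 note: healthy adult koalas, three per sex, anaesthetised the day before dosing for cephalic vein catheterisation, with serial blood draws and firocoxib in plasma quantified by HPLC using fluorescence detection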
Settings: female, koala (Phascolarctos cinereus), plasma, po, 5 mg/kg, Firocoxib plasma concentration, K5 female; 1 h; single oral 5 mg/kg
MEASURE NAME: concentration at 1 h (ng/mL)
# number only, unit ng/mL dropped from output

Lookup result for `CC1(C)OC(=O)C(OCC2CC2)=C1c1ccc(S(C)(=O)=O)cc1` ; measured concentration at 1 h: 28.6
